target: PSMA (Rattus norvegicus, UniProt P70627); construct: ganglia as natural PSMA-expressing tissues remain constant over a long time; from tissue; host or cells: healthy Long Evans rats in vivo; assay: PET study of PSMA-specific tracers in healthy rats; assay type: in vivo; conditions: PET 60-120 min after injection, superior cervical ganglion
Sequence (P70627 whole entry): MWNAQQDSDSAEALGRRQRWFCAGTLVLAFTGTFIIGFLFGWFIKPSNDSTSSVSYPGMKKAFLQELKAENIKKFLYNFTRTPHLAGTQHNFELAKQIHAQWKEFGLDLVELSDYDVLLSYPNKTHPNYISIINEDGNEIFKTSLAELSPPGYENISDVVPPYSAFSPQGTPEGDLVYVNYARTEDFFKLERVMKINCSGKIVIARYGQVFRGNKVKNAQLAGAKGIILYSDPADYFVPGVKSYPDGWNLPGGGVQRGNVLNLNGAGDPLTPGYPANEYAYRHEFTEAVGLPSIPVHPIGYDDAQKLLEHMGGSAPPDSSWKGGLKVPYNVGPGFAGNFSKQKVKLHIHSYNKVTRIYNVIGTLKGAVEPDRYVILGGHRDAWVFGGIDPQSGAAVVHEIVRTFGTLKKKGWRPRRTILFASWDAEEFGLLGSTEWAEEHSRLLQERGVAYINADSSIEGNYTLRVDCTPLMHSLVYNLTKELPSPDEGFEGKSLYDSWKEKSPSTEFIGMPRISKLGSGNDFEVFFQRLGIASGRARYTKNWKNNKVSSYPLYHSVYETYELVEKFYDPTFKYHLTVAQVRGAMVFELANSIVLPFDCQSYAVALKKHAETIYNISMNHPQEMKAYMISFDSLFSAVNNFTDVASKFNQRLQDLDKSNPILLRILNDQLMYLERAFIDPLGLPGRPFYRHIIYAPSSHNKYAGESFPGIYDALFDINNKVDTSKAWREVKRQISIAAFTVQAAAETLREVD
# SCG % ID values compiled below
METRIC_NAME: SCG % ID (% ID)

{"COMPOUND": "COc1nc([18F])ccc1C(=O)NCCCC[C@H](NC(=O)N[C@@H](CCC(=O)O)C(=O)O)C(=O)O [2-MeO-[^18F]PSMA]", "TEST_RESULT": 31.3}
{"COMPOUND": "O=C([O-])CN(CCN(CC(=O)[O-])Cc1cc(CCC(=O)NCCCCCC(=O)NCCCC[C@H](NC(=O)N[C@@H](CCC(=O)O)C(=O)O)C(=O)O)ccc1[O-])Cc1cc(CCC(=O)O)ccc1[O-].[68Ga+3].[OH3+] [[^68Ga]Ga-PSMA-HBED-CC]", "TEST_RESULT": 41.0}
{"COMPOUND": "COc1cc([18F])ncc1C(=O)NCCCC[C@H](NC(=O)N[C@@H](CCC(=O)O)C(=O)O)C(=O)O [4-MeO-[^18F]PSMA]", "TEST_RESULT": 14.4}
{"COMPOUND": "O=C(O)CC[C@H](NC(=O)N[C@@H](CCCCNC(=O)c1ccc([18F])nc1)C(=O)O)C(=O)O [[^18F]DCFPyL]", "TEST_RESULT": 20.2}

Data origin, for the record: patent US11542234B2
